# measured_on: HLA DRB1*0401 (human)
# experiment_notes: competition with 125I probe peptide, purified HLA
Items are presented alongside their recorded IC50.
Express the result in nM but write the number alone.

Sample records with IC50:
LDLQPETTDLYCYEQ (modifications not checked) [HPV16.E7.13 HTL epitope]    1900
NGWFYVEAVIDRQTG (modifications not checked) [HPV31.E1.15 HTL epitope]    845

IC50 for TGRCIACWRRPRTET (modifications not checked) [HPV31.E6.132 HTL epitope] ?
758
